# experimental system: SOS1 (Homo sapiens)
# Construct: HIS-SOS1cat (160 nM; Cytoskeleton, US); His (N); purchased Cytoskeleton
# Sequence (Q07889 564-1049 limits assumed): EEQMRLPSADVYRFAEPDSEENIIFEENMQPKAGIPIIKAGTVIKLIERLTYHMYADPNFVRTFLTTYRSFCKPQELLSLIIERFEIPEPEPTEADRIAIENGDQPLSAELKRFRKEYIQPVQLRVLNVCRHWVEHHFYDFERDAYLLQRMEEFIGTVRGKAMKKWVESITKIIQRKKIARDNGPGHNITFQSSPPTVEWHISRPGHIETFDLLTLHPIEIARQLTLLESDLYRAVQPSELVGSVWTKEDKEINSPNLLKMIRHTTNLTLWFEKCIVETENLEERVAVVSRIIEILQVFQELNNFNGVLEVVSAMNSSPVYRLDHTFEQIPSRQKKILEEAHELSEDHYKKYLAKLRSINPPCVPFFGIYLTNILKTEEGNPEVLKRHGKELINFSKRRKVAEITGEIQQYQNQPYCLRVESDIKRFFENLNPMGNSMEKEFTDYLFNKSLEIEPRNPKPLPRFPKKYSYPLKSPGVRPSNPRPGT
# experimental protocol: SOS-catalyzed nucleotide exchange assay (HTRF, SOS1-mediated GTP loading of KRAS G12D)
# Type: biochemical
# protocol conditions: read-out: SOS-catalyzed nucleotide exchange assay; GST-KRAS G12D, HIS-SOS1cat, compound 128 pM to 10 µM
readout: IC50

>>> assay_result("CC(C)n1nncc1-c1cncc(-n2nc(C(=O)N[C@H](C)c3cccc(C(F)(F)F)c3F)ccc2=O)c1")
"50 to 150 nM"

Moving on to another compound below.
Task item: Quick one: give measured IC50 for C[C@@H](NC(=O)c1ccc(=O)n(-c2cnc(N3CCOCC3)c(-c3cnnn3C)c2)n1)c1cccc(C(F)(F)F)c1F
Reply: 50 to 150 nM
